Below, each entry is listed with its recorded damage to plant (100=total damage to plant; 0=no damage to plant), SETFA.
- Tested on: plants
- method: Test D pre-emergence, other plants of Tables D1 and D3
- Assay type: in vivo
- experimental_context: SETFA; preemergent; rate 60; 20 DAA
- Procedure: A formulation containing 50 g/L of the test chemical was prepared by dissolving the active ingredient in a mixture of organic solvents and emulsifier, details of which are provided in the table. This formulation was then mixed with a small, variable amount of acetone to aid dissolution, before addition of a 0.2% v/v aqueous solution of an adjuvant, as the aqueous diluent, to form an aqueous spray solution which contains a predetermined concentration of the active ingredient. […]
property_label: damage to plant (100=total damage to plant; 0=no damage to plant), SETFA

> print(dat)
                                   compound  result
1  CN1CC(c2cc(C(F)(F)F)n(C)n2)C(C(=O)Nc2ccc(F)cc2F)C1=O (racemic)      10
2  CN1CC(c2cc(C(F)(F)F)n(C)n2)C(C(=O)Nc2ccccc2F)C1=O (racemic)       0
3  CCn1nc([C@H]2CN(C)C(=O)[C@@H]2C(=O)Nc2cccc(F)c2F)c2cc(F)ccc21      70
4  CN1CC(c2cc(C(F)(F)F)n(C)n2)C(C(=O)Nc2cccc(F)c2C(F)(F)F)C1=O (racemic)      80
